Source: PubChem BioAssay AID1531

molecular target: Mitogen-activated protein kinase kinase kinase 2 (Homo sapiens) (UniProt Q9Y2U5); assay: modulators of MEK5 binding to wildtype MEKK2, primary screen, biochemical, multiplex bead flow cytometry, Alexa488-MEK5 (AID 1531); conditions: Alexa488-MEK5 binding to MEKK2 WT, at 10 µM, actives lie on both sides
The whole screen tested about 290,000 compounds, of which about 3,300 (1.1%) were called active. For the sample, actives were picked, then their nearest neighbours and some compounds at random.
READOUT: binding response (% of control) (%)
Numbers only here, please. The scale is %.

MOLECULE	binding response (% of control) / %
CC(=O)Nc1ccc(C(=O)Nc2nc(-c3cc(C)n(Cc4ccccc4)c3C)cs2)cc1	107
Cc1ccc(C(=O)NCCN2CCOCC2)cc1C	99
COc1ccc(CNC(=O)c2nnn(CC(=O)Nc3cc(C)cc(C)c3)c2N)cc1	101
CCc1ccc(NC(=O)Cn2nnc(C(=O)NCc3ccc(OC)cc3)c2N)cc1	104
O=C1N[C@H](Cc2ccccc2)C(=O)N[C@H]1Cc1cn(S(=O)(=O)c2ccccc2)c2ccccc12	102
CCC(C)N1CC(=O)N2Cc3[nH]c4ccccc4c3C[C@H]2C1=O (stereo not given in full)	109
Cc1cc(-c2csc(N)n2)c(C)n1Cc1ccccc1	89
CC(C)(C)c1ccccc1NC(=O)CN1C(=O)NC2(CCCC2)C1=O	100
Cc1cccc(-c2nc3ccc(C(=O)NCCN4CCN(C)CC4)cc3nc2-c2cccc(C)c2)c1	156

Then there is this molecule:
// lookup binding response (% of control) for CCc1ccc(S(=O)(=O)Nc2cc3c(cc2N2CCCCC2)n(C)c(=O)c(=O)n3C)cc1
101
